- System: UO-31
- protocolSummary: NCI tumour cell line growth inhibition, 48 h
The source made the active and inactive calls. Cut-off read from the data, not from the text of the source: active = GI50 up to about 1.1 µM and inactive = higher.
Pick one: TRUE for active, FALSE for inactive

// param item: O=C(O)C(CCc1ccccn1)c1ccccc1 (centres undefined) ; yields the recorded call FALSE

// param item: COC1=CC(=O)C2=C(C1=O)[C@H]1CC[C@]3(C)[C@@H](O)CC[C@H]3[C@@H]1CC2 ; yields the recorded call FALSE

// param item: CCCCC(=C=C(C)CO)C1CCCN1C(=O)OC(C)(C)C (centres undefined) ; yields the recorded call FALSE

// param item: COc1cc2ccc(/C=C\[N+](=O)[O-])cc2cc1OC ; yields the recorded call FALSE

// param item: COC1/C=C/C(C)C(C(C)C(OC)C(C)CCC(=O)C(C)C(C/C=C/N(C)C=O)OC)OC(=O)/C=C/C=C(\C)CC(OC)C(OC)C2=CC(=O)O[C@@H](C(C)C(OC)CC(OC)/C=C/C(C)C(O)C1)[C@H]2O (some centres undefined) ; yields the recorded call TRUE

// param item: COc1ccccc1NC1Oc2cc3c(cc2C(c2cc(OC)c(OC)c(OC)c2)C1C)OCO3 (centres undefined) ; yields the recorded call FALSE

// param item: COc1c(O)c2c3c(cc(C)cc3c1C(C)C)OC2 ; yields the recorded call FALSE

// param item: O=C1C(Cl)=C(N2CCOCC2)C(=O)c2c(O)ccc(O)c21 ; yields the recorded call TRUE

// param item: COc1ccc(OC)c2c(/C=C/c3ccc(N(C)C)cc3)ccnc12 ; yields the recorded call FALSE

// param item: COc1ccc(/C(=N\NC(=O)NN)C(c2ccc(OC)cc2)C2(O)C(=O)Nc3c(Cl)cc(Cl)cc32)cc1 (centres undefined) ; yields the recorded call FALSE

// param item: COc1cc2c(c(OC)c1OC)-c1ccc(SC)c(=O)cc1C(CC(=O)Oc1ccc(F)cc1)C2 (centres undefined) ; yields the recorded call TRUE

// param item: O=C1c2ccccc2-c2c1c1ccccc1c(=O)n2CCO ; yields the recorded call FALSE

// param item: C[N+](C)(C)CC(=O)N/N=C(/CC1OC(=O)c2ccccc21)c1ccccc1O (centres undefined) ; yields the recorded call FALSE

// param item: Cc1cc(CS(=O)(=O)/C=C/c2ccccc2[N+](=O)[O-])c(CS(=O)(=O)/C=C/c2ccccc2[N+](=O)[O-])cc1C ; yields the recorded call FALSE

// param item: Cc1nc2sccn2c1/C=C1/C(=O)Nc2cccc(Cl)c21 ; yields the recorded call FALSE

// param item: O=[N+]([O-])c1cccc(C2=NOC3CCCC23)c1 (centres undefined) ; yields the recorded call FALSE

// param item: C/C(=N\Nc1ncnc2ccccc12)c1ccccn1 ; yields the recorded call TRUE

// param item: c1ccc2c(c1)OCCOCCOc1ccccc1OCCO2 ; yields the recorded call FALSE

// param item: Cc1cc(NS(=O)(=O)c2ccc(NC(=O)c3cccn4c(=O)c5ccccc5nc34)cc2)no1 ; yields the recorded call FALSE

###

- System: HCT-116
- protocolSummary: NCI tumour cell line growth inhibition, 48 h
The source made the active and inactive calls. No stated cut-off is given here; in the data, active = GI50 up to about 1.1 µM and inactive = higher.
Pick one: active, inactive

// param item: CCCCC(=C=C(C)CO)C1CCCN1C(=O)OC(C)(C)C (centres undefined) ; yields the recorded call inactive

// param item: Cc1nc(C(=O)O)c2ccccc2n1 ; yields the recorded call inactive

// param item: COc1ccc2c(c1)[nH]c1c(/C=C/c3ccccc3)nccc12 ; yields the recorded call inactive

// param item: CCN(CC)C(=S)SS(C)(=O)=O ; yields the recorded call inactive

// param item: CC(=O)OC(CCC1(C)OC1COc1ccc(CCNC(=O)C=C(C)C)cc1)C(C)(C)OC(C)=O (centres undefined) ; yields the recorded call active

// param item: Cc1ccc(-n2cc(-c3ccc(Cl)cc3)c3c(N/N=C4\SCC(=O)N4C)ncnc32)cc1 ; yields the recorded call inactive

// param item: CC(=O)Oc1c(C)c(-c2ccccc2)c(C)c(-c2ccccc2)c1C(=S)c1ccccc1 ; yields the recorded call inactive

// param item: O=C1NC2c3c(I)sc(I)c3/C(=N\O)C2O1 (centres undefined) ; yields the recorded call inactive

// param item: Cc1c(-c2ccccc2)c(C#N)c2nnn(C)c(=O)n12 ; yields the recorded call inactive

// param item: COc1cc(O)c(C(=O)C2Cc3ccccc32)c(OC)c1 (centres undefined) ; yields the recorded call inactive

// param item: CCC1C2Cc3ccc(O)cc3C1(CC)CCN2C (centres undefined) ; yields the recorded call inactive

// param item: CCOC(=O)c1cc(C2CCN(Cc3ccccc3)C2=O)c(C(=O)/C=C(/C)N)[nH]1 (centres undefined) ; yields the recorded call inactive

// param item: CN1c2ccccc2C2c3c(O)ccc(O)c3C=C([N+](=O)[O-])C21 (centres undefined) ; yields the recorded call active

// param item: Cn1sc2ccccc2c1=S ; yields the recorded call inactive

// param item: COc1ccc(/C(=N\NC(=O)NN)C(c2ccc(OC)cc2)C2(O)C(=O)Nc3c(Cl)cc(Cl)cc32)cc1 (centres undefined) ; yields the recorded call inactive

// param item: O=[N+]([O-])[C@@H]1C2C=CC(C2)[C@H]1Cl (some centres undefined) ; yields the recorded call inactive

// param item: O=C1OC(c2ccccc2)=NC1c1ccccc1 (centres undefined) ; yields the recorded call inactive

// param item: c1ccc(CNCCCCNCCCNCc2ccccc2)cc1 ; yields the recorded call inactive

// param item: CN1C/C(=C\c2cccs2)C2=NC(=S)NC(c3cccs3)C2C1 (centres undefined) ; yields the recorded call inactive

// param item: COc1ccc2c(c1)CCc1c(-c3noc4c3CCc3cc(OC)ccc3-4)noc1-2 ; yields the recorded call inactive

// param item: CC#CC#C/C=C1/O[C@]2(CCC(OC(=O)CC(C)C)CO2)[C@@H]2O[C@H]12 (some centres undefined) ; yields the recorded call inactive

// param item: CN(C)CCN1CCc2c([nH]c3ccccc23)C1c1cccnc1 (centres undefined) ; yields the recorded call inactive

// param item: O=C(CCN1CC2CCC(CC2)C1)c1cccs1 ; yields the recorded call inactive

// param item: COc1ccc2c(CC(=O)O)cc(=O)oc2c1 ; yields the recorded call inactive

###

- System: KM12
- protocolSummary: NCI tumour cell line growth inhibition, 48 h
Calls of active or inactive are those of the source. No stated cut-off is given here; in the data, active = GI50 up to about 1.1 µM and inactive = higher.
Pick one: true (1) = active, false (0) = inactive

// param item: CCOC(=O)c1c(-c2ccc(O)c(OC)c2)c(C#N)c(=S)n(C2OC(CO)C(O)C(O)C2O)c1-c1ccccc1 (centres undefined) ; yields the recorded call false (0)

// param item: O=C1NC(N2CCOCC2)=N/C1=C\c1ccccc1 ; yields the recorded call false (0)

// param item: O=C1OC(CC(=O)c2ccc(Cl)c(Cl)c2)C(Cl)=C1Cl (centres undefined) ; yields the recorded call false (0)

// param item: Cc1nc(=O)[nH]c2c1C(=O)N(C(C)C)C(NC(C)C)S2 (centres undefined) ; yields the recorded call false (0)

// param item: CC(C)Cn1cnc2c(Sc3c([N+](=O)[O-])ncn3C)nc(N)nc21 ; yields the recorded call false (0)

// param item: O=C(N/C=C1\C(=O)Oc2ccccc2C1=O)Oc1ccccc1 ; yields the recorded call false (0)

// param item: CCN(CC)C1CC(O[C@H]2C[C@](O)(C(=O)CO)Cc3c(O)c4c(c(O)c32)C(=O)c2c(OC)cccc2C4=O)OC(C)C1O (some centres undefined) ; yields the recorded call true (1)

// param item: CCOC(OCC)(OCC)C(Br)CC (centres undefined) ; yields the recorded call false (0)

// param item: N=C(c1ccc(-c2cn3cc(C(=N)N4CCCC4)ccc3n2)cc1)N1CCCC1 ; yields the recorded call false (0)

// param item: O=C(Nc1c(Cl)cc([N+](=O)[O-])cc1Cl)C(=O)C1C(=O)NC(=S)NC1=O ; yields the recorded call false (0)

// param item: CC(=O)Nc1c2sscc-2n(C)c1=O ; yields the recorded call false (0)

// param item: Cc1cc(=O)oc2c(C3=NN(C=O)C(c4ccccc4)C3)c(O)ccc12 (centres undefined) ; yields the recorded call false (0)

// param item: O=C1CCCn2c3ccccc3c3ccnc1c32 ; yields the recorded call false (0)

// param item: CC(=O)OCc1ncccc1C(OC(C)=O)OC(C)=O ; yields the recorded call false (0)

// param item: C=CCNc1ccc(C)cc1 ; yields the recorded call false (0)

// param item: CN(C)CCCN1c2ccccc2CCc2cccc([N+](=O)[O-])c21 ; yields the recorded call false (0)

// param item: CCN(CC)CCOC(c1ccccc1)c1ccccc1.CCOC(=O)Nc1ccc(S(=O)(=O)OC)cc1.CCOC(=O)Nc1ccc(S(=O)(=O)OC)cc1.Nc1ccc(C(=O)O)c(O)c1 ; yields the recorded call false (0)

// param item: Nc1ccccc1CCCC(=O)O ; yields the recorded call false (0)

// param item: CNC(=O)Nn1c(SC)nc2ccccc21 ; yields the recorded call false (0)
